Where do the numbers come from? From PubChem BioAssay AID1159580.

Test: chemical genetic growth profiling, strain panel (AID 1159580);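 further: tested at 20 µM; growth read once vehicle control cultures reached saturation at 30 °C; 1 = growth at the plate median or of vehicle wells; lower values mean less growth of the strain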
Conditions: S. cerevisiae deletion strains, growth OD, locus YGL227W, strain vid30, stronger effect = lower value
Hit rate of the full screen: of about 5,500 compounds, about 2,000 (36%) were called active. Inconclusive results (about 18%) are left out. This is one part of the list.
normalized growth overview
Could you keep your reply to the number by itself?

Observe how each entry below is paired with its result.
Compound | normalized growth
COC(=O)C[C@H]1C(C)(C)[C@@H](OC(C)=O)[C@@H]2CC3C4CC(=O)O[C@@H](c5ccoc5)[C@]4(C)CCC3[C@@]1(C)C2=O (stereo not given in full) | 1.02
COP(=S)(OC)SCn1nnc2ccccc2c1=O | 0.997
C=C(C)c1cc2cc(C(C)=O)c(O)cc2o1 | 0.967
C[N+]1(C)CCc2cc3c(cc2[C@H]1C1OC(=O)c2c1ccc1c2OCO1)OCO3 (stereo not given in full) | 1
CCCc1nc(C(C)(C)O)c(C(=O)OCc2oc(=O)oc2C)n1Cc1ccc(-c2ccccc2-c2nn[nH]n2)cc1 | 0.96
CC1(C)S[C@@H]2[C@H](NC(=O)COc3ccccc3)C(=O)N2[C@H]1C(=O)O | 0.984
CCOC(=O)C1=C(C)NC(C)=C(C(=O)OC)C1c1cccc([N+](=O)[O-])c1 (stereo not given) | 1.01
CC(C)CCCC(C)[C@H]1CCC2C3CC[C@H]4CC(=O)CC[C@]4(C)C3CC[C@@]21C (stereo not given in full) | 0.994

# input Name the recorded normalized growth for `COc1c2occc2cc2ccc(=O)oc12` .
# output 0.988

# input Name the recorded normalized growth for `CC(=O)N[C@@H](CC(=O)O)C(=O)O` .
# output 1.01
